The reported numbers originate from ChEMBL document CHEMBL1221405.

# procedureSummary: Antioxidant activity assessed as superoxide radical scavenging activity by NBT method
# Format: functional
propertyName: IC50 (µg/mL)

Example cases with answers are listed next.
O=c1c(O)c(-c2ccc(O)c(O)c2)oc2cc(O)cc(O)c12 [QUERCETIN]	68
O=C1O[C@H]([C@@H](O)CO)C(O)=C1O [ASCORBIC ACID]	13

A. O=C(O[C@H]1[C@@H]2C=CO[C@@H](O[C@H]3O[C@@H](CO)[C@H](O)[C@@H](O)[C@@H]3O)[C@@H]2[C@](O)(CO)[C@@H]1Cl)c1ccc(O)c(O)c1 [LONGIFOLIOSIDES A]
B. O=C(/C=C/c1ccc(O)c(O)c1)O[C@H]1[C@@H]2C=CO[C@@H](O[C@H]3O[C@@H](CO)[C@H](O)[C@@H](O)[C@@H]3O)[C@@H]2[C@](O)(CO)[C@@H]1Cl [LONGIFOLIOSIDE B]
Q: Lower IC50: A or B ? // output: label of the selected item
A: A
